molecular target: α4β2 nAChR (Rattus norvegicus (Rat), UniProt P09483+P12390); assay: Inhibition of [3H]epibatidine binding at the α4β2 nAChR in male rat cerebral cortex; settings: αβ [3H]Epibatidine (Ki, nM)
Sequence (P09483 31-630 limits assumed): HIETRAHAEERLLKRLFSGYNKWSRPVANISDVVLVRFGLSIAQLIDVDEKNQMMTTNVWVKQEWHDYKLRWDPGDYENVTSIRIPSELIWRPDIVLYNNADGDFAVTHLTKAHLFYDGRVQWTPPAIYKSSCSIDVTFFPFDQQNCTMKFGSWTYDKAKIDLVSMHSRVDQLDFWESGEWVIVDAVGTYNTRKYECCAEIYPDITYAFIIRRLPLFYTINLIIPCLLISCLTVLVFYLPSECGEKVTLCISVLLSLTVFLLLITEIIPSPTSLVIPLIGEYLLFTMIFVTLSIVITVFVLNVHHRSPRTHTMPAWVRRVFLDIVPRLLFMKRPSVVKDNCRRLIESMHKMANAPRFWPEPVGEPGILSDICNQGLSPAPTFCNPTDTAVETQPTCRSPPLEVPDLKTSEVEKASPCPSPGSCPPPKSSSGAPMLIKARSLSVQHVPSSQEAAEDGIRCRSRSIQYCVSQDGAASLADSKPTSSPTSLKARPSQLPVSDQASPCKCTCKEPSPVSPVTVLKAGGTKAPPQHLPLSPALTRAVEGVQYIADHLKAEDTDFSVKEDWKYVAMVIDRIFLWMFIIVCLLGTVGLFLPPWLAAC
Sequence (P12390 25-500 limits assumed): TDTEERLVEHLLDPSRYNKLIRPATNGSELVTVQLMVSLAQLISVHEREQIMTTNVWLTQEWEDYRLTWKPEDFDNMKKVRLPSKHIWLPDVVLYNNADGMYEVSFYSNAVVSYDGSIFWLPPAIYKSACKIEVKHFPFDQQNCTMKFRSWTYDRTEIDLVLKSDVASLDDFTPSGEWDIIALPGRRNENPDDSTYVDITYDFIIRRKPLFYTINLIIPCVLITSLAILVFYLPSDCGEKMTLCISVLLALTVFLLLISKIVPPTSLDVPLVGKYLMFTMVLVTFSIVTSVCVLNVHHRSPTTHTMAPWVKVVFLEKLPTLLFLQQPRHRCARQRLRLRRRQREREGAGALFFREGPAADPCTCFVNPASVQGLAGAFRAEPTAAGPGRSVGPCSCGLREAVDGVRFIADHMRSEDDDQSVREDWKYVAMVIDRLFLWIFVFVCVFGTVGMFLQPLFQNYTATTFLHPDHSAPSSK
Counter-ions that a name gives are not always drawn.
Reported Ki is given for each of the following compounds.
# number only, unit nM dropped from output

[[record]]
compound = "Fc1ncc(C2CC3CCC2N3)cc1-c1ccc(C(F)(F)F)cc1 (centres unmarked) [RTI-7527-153, hydrochloride]"
obs_value = 0.44


Here is the next item to consider.
Problem: Tell me the measured Ki of N#Cc1ccc(-c2cc(C3CC4CCC3N4)cnc2F)cc1 (centres unmarked) [RTI-7527-155, hydrochloride] , please.
Solution: 0.19
